Origin of values: PubChem BioAssay (NCI)

Test system: HT29 colon
Procedure details: NCI-60 one-dose screen, 48 h (100 = growth as untreated, 0 = no growth, -100 = all killed)
Condition context: 10 µM unless noted
Procedure: Growth inhibition of the HT29 human tumor cell line is measured as a screen for anti-cancer activity. Cells are grown in 96 well plates and exposed to the test compound for 48 hours. Compounds are tested at a single concentration, which is 10^-5 M for most compounds. The reported endpoint is percent growth (GI% or GIPRCNT), where numbers from 0 - 100% represent growth inhibition, and numbers from -100% - 0 represent cell death. For example, a value of 40 represents 60% growth inhibition. […]
This is part of a sample that, as a whole, favours compounds with a hit. Of some 83,000 tested, about 20% had one in any assay. Activity calls are given as the source filed them. Rule for the calls: active = growth percent below 10; inactive = the rest.

{"Compound": "COC(=O)[C@@H](OC)[C@@H]1Cc2cc3cc(OC4CC(OC5CC(O)C(O)C(C)O5)C(O)C(C)O4)c(C)c(O)c3c(O)c2C(=O)[C@H]1OC1CC(OC2CC(OC3CC(C)(O)C(O)C(C)O3)C(O)C(C)O2)C(O)C(C)O1 (some centres undefined)", "Target system": "HT29 colon", "growth": "3.61% (active)"}
{"Compound": "COc1cc2c(Oc3ccc4[nH]c(C)cc4c3F)ncnc2cc1OCCCN1CCCC1", "Target system": "HT29 colon", "growth": "83.9% (inactive)"}
{"Compound": "COc1c(C(NC(=O)c2ccccc2)c2sccc2C)cc(Cl)c2cccnc12 (centres undefined)", "Target system": "HT29 colon", "growth": "94.1% (inactive)"}
{"Compound": "O=C1CSC(c2c(F)cccc2Cl)N1NC(=O)C(O)(c1ccccc1)c1ccccc1 (centres undefined)", "Target system": "HT29 colon", "growth": "95.9% (inactive)"}
